Source of measurements: patent US20240254087A1

# assayed target: UniProt P08908
# Sequence (P08908 1-422): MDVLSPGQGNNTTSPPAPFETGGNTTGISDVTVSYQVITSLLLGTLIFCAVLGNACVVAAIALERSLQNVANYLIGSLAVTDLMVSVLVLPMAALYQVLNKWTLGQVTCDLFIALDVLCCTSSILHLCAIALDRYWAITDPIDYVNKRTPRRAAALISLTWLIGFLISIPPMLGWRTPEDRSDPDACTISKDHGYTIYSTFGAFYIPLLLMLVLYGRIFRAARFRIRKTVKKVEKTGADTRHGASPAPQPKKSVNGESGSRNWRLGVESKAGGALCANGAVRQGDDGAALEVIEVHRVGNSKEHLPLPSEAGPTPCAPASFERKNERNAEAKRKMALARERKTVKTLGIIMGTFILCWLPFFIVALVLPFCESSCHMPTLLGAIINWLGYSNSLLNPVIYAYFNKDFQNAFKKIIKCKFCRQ
Assignment: determine reported Ki for the given compounds.

| compound | reported measurement |
| --- | --- |
| COc1cc([N+](=O)[O-])c(OC)cc1CCNCc1cccc(C)c1 [25N-NB-3-Me (22)] | 1.78 µM |
| COc1cc([N+](=O)[O-])c(OC)cc1CCNCc1cccc(F)c1OC [25N-NB-2-MeO-3-F (19)] | 1 µM |
| COc1cc([N+](=O)[O-])c(OC)cc1CCNCc1ccc(C)cc1 [25N-NB-4-Me (23)] | 2.63 µM |
| COc1cc([N+](=O)[O-])c(OC)cc1CCNCc1ccc(F)cc1 [25N-NB-4-F (25)] | > 10 µM |
| COc1cc([N+](=O)[O-])c(OC)cc1CCNCc1cccc2c1OC(F)(F)O2 [25N-NBMDF2 (13)] | 1 µM |

Record Ki for all entries; do not skip any.
1. COc1cc([N+](=O)[O-])c(OC)cc1CCNCc1ccccc1-c1ccccc1 [25N-NBPh (17)]
2. COc1cc([N+](=O)[O-])c(OC)cc1CCNCc1cccc2ccccc12 [25N-N-1-Nap (16)]
3. COc1ccc(OC)c(CNCCc2cc(OC)c([N+](=O)[O-])cc2OC)c1 [25N-NB-2,5-DiMeO (20)]

Result:
1. 1.78 µM
2. 0.24 µM
3. 0.513 µM

====

# assayed target: 5-HT2A (Homo sapiens, UniProt P28223)
# Sequence (P28223 whole entry): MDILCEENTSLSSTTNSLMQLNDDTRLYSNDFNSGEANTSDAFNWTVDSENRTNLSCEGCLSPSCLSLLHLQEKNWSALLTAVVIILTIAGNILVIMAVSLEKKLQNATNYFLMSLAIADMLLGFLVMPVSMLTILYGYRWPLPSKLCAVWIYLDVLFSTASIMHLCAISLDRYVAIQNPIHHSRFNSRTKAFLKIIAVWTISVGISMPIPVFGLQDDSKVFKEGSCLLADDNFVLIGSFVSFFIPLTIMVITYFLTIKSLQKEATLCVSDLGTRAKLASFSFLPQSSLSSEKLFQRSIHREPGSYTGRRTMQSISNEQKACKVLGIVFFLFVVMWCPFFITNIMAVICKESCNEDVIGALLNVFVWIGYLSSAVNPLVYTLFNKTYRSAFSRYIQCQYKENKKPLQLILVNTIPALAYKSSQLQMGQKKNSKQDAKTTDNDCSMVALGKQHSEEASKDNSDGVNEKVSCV
# protocol details: Ca2+ flux assay, 5-HT2A
# Assay type: cell-based
# Set-up: expressed in transfected cells
# stated conditions: Ca2+ flux
assay readout: 5-HT2A Emax % 5-HT (% 5-HT)
Numbers only, in % 5-HT.

Solved cases (3 shown):
| compound | 5-HT2A Emax % 5-HT, % 5-HT |
| --- | --- |
| COc1cc([N+](=O)[O-])c(OC)cc1CCNCc1ccccc1[N+](=O)[O-] [25N-NBNO2 (15)] | 64 |
| COc1cc([N+](=O)[O-])c(OC)cc1CCNCc1ccccc1OC(F)F [25N-NBOCF2H (11)] | 95 |
| COc1cc([N+](=O)[O-])c(OC)cc1CCNCc1ccccc1C(F)(F)F [25N-NBCF3 (14)] | 77 |

# ---- query compound ----
Problem: Which 5-HT2A Emax % 5-HT is listed for COc1cc([N+](=O)[O-])c(OC)cc1CCNCc1ccccc1OC(F)(F)F [25N-NBOCF3 (12)] ?
Result: 75
